testedOn: ATP-sensitive inward rectifier potassium channel 1 (Homo sapiens)
experimentDescription: ROMK potassium channel modulators, primary screen, cell-based, thallium flux, MLSMR library (AID 1918);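 also: B-score of the F/F0 ratio slope over 7 to 12 s after thallium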
testContext: Tet-inducible ROMK, thallium flux fluorescence; at 10 µM; actives lie on both sides
About 2,500 (1.9%) of roughly 130,000 compounds were called active. Shown is part of a subset that was picked to be rich in actives.
What B-score was measured for each of the following?
Please respond with just the number, no unit label.

Value of B-score reported for the molecule COC(=O)COc1cccc2c(=O)n(CC(=O)NCc3ccccc3)ccc12 is 2.99

Value of B-score reported for the molecule Oc1c(C=Nc2cccc3nsnc23)ccc2ccccc12 is -0.773

Value of B-score reported for the molecule COCCn1c(Cc2cccn2C)nnc1SCC(=O)Nc1nccs1 is -0.191

Value of B-score reported for the molecule COc1ccc(N=Cc2c(O)[nH]c3ccccc23)cc1OC is 2.81

Value of B-score reported for the molecule O=S(=O)(Nc1ncccn1)c1ccc(NS(=O)(=O)c2cccc(Cl)c2Cl)cc1 is 0.305

Value of B-score reported for the molecule Cn1cnc(S(=O)(=O)Nc2ccc3c(c2)OCCO3)c1 is 1.18

Value of B-score reported for the molecule Cc1nc(COc2cccc(Cl)c2)sc1C(=O)/C=C/N(C)C is -0.0177

Value of B-score reported for the molecule CN(C)c1ccc(/C=N\S(=O)(=O)c2ccccc2)cc1 is 0.722

Value of B-score reported for the molecule COc1cc(NC(=S)NCc2ccc(S(N)(=O)=O)cc2)cc(OC)c1 is 2.23

###

testedOn: ATP-sensitive inward rectifier potassium channel 1 (Homo sapiens) (UniProt P48048)
Sequence (P48048 whole entry, looked up): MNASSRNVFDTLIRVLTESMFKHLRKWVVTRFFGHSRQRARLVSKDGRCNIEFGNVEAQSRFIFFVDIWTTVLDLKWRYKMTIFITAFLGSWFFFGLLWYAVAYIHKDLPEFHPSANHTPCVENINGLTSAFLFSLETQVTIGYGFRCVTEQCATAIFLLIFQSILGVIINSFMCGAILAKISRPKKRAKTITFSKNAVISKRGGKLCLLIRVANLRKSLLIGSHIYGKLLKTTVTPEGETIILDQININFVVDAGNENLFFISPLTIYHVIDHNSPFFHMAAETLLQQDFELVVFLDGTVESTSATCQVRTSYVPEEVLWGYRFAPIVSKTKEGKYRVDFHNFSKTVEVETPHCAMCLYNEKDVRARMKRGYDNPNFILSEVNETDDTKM
experimentDescription: ROMK potassium channel modulators, primary screen, cell-based, thallium flux, MLSMR library (AID 1918);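 also: B-score of the F/F0 ratio slope over 7 to 12 s after thallium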
testContext: Tet-inducible ROMK, thallium flux fluorescence; at 10 µM; actives lie on both sides
In all, about 130,000 compounds went through this assay and about 2,500 (1.9%) were called active. For the sample, actives were picked, then their nearest neighbours and some compounds at random.
endpointLabel: B-score
Please respond with just the number, no unit label.

Value of B-score reported for the molecule O=C(Nc1cccnc1)c1ccc(Cl)c([N+](=O)[O-])c1 is 0.478

Value of B-score reported for the molecule N=c1n(CCc2ccccc2)c2ccccc2n1Cc1ccccc1F is -3.48

Value of B-score reported for the molecule CN(Cc1ccccc1)Cc1ccccc1F is 0.0291

Value of B-score reported for the molecule C=CCn1c(-c2sc(-c3ccccc3)nc2C)n[nH]c1=S is -0.143

Value of B-score reported for the molecule O=[N+]([O-])c1ccc(N=Cc2c(O)ccc3ccccc23)cc1 is -4.23

Value of B-score reported for the molecule CCn1cc(C(=O)Nc2cc(C)ccc2C)c(=O)c2ccc(C)nc21 is 0.0033

Value of B-score reported for the molecule O=C(N/N=C/c1ccc([N+](=O)[O-])cc1)c1c[nH]c2ccccc12 is -0.0103

Value of B-score reported for the molecule Cc1cc(NC(=O)OC(C)C)ccc1-c1ccc(NC(=O)OC(C)C)cc1C is 0.938

Value of B-score reported for the molecule Fc1ccccc1Cn1cnc(NC(=S)NCCc2ccccc2)n1 is 0.722

Value of B-score reported for the molecule CCCC(=O)NC(=S)Nc1ccc(CN2CCOCC2)cc1 is 0.069

Value of B-score reported for the molecule Cc1cccc(NC(=O)CSc2nnc(CCNC(=O)OC(C)(C)C)o2)c1C is 0.146

Value of B-score reported for the molecule O=c1[nH]c(-c2ccccc2)c(-c2ccccc2)[nH]1 is -0.0963

Value of B-score reported for the molecule O=c1[nH]c(CSc2ccccc2)nc2c1oc1ccccc12 is 0.176

Value of B-score reported for the molecule COc1ccc(N2CCN(C(=O)C3CCN(S(=O)(=O)c4ccc(C)cc4)CC3)CC2)cc1 is 0.00237

Value of B-score reported for the molecule O=c1cc(-c2ccccc2)[nH]c2cc(F)ccc12 is 4.56

Value of B-score reported for the molecule CC(=O)c1cccc(CN2CCC(CO)(Cc3ccccc3)CC2)c1 is -0.319

Value of B-score reported for the molecule CCOC(=O)C1=C(CSc2nccn2C)NC(=O)NC1c1ccc(OC)cc1 (stereo not given) is 0.553

Value of B-score reported for the molecule CCOc1cc(/C=C(\C#N)c2nc(-c3cccs3)c(NC(C)=O)s2)ccc1O is -2.6

Value of B-score reported for the molecule COc1ccc(N(CC(=O)Nc2ccc(C)cc2C)S(=O)(=O)c2ccccc2[N+](=O)[O-])c(OC)c1 is -0.208

Value of B-score reported for the molecule CC12CN(Cc3ccccc3)CC(C)(CN(Cc3ccccc3)C1)C2=NO is -3.21

Value of B-score reported for the molecule CC(=O)n1c(C=Nc2ccccc2)c(O)c2ccccc21 is -1.73

Value of B-score reported for the molecule CCCN(CCC)CC(O)COc1ccccc1C(=O)Nc1ccccc1 (stereo not given) is -3.37

Value of B-score reported for the molecule Cc1nc2sc3c(c2c(=O)n1NC(=O)CCl)CCCC3 is -0.421

Value of B-score reported for the molecule Cc1ccc(S(=O)(=O)Nc2nc(N)n(-c3ccccc3)n2)cc1 is 0.00772

Value of B-score reported for the molecule CSCCNCc1cn(-c2ccc(F)cc2F)nc1-c1ccccc1C is -0.924

Value of B-score reported for the molecule COCCNC(=O)CCCn1c(=O)c2ccccc2n(Cc2cccc([N+](=O)[O-])c2)c1=O is -1.13

Value of B-score reported for the molecule COc1cc(NC(=O)COC(=O)c2cnc(C)cn2)c(C)cc1[N+](=O)[O-] is -0.377

Value of B-score reported for the molecule Cc1cccc(C(=O)Nc2ccccc2C(=O)NCc2cccnc2)c1 is -0.294

Value of B-score reported for the molecule CN(C)c1ccc(/C=C/C(=O)c2ccc(C(C)(C)C)cc2)cc1[N+](=O)[O-] is -0.617

Value of B-score reported for the molecule Cc1ccc(N2C(=O)CC(Nc3cccc4ccccc34)C2=O)cc1 (stereo not given) is -0.14

Value of B-score reported for the molecule CCOc1cccc(C(=O)Nc2nnc(-c3cccs3)s2)c1 is 1.45

Value of B-score reported for the molecule COc1cccc(NC(=O)COC(=O)CCOc2ccccc2OC)c1 is 2.55

Value of B-score reported for the molecule O=C(Nc1ccccc1)N1CCN(Cc2ccccc2)CC1 is -0.796

Value of B-score reported for the molecule CCOc1ccc(Br)cc1S(=O)(=O)N1CCC(C(=O)O)CC1 is -0.0303

Value of B-score reported for the molecule O=C(Nc1ccncc1)c1ccccc1[N+](=O)[O-] is -0.131

###

testedOn: ATP-sensitive inward rectifier potassium channel 1 (Homo sapiens) (UniProt P48048)
experimentDescription: ROMK potassium channel modulators, primary screen, cell-based, thallium flux, MLSMR library (AID 1918);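 also: B-score of the F/F0 ratio slope over 7 to 12 s after thallium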
testContext: Tet-inducible ROMK, thallium flux fluorescence; at 10 µM; actives lie on both sides
The whole screen tested about 130,000 compounds, of which about 2,500 (1.9%) were called active.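 How the source made its calls: active means signal ratio slope over the read window, or its plate-corrected B-score, at least 3 SD from the plate mean, either direction; inactive means the rest.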 The entries come from a sample that favours actives as a whole.
Outcomes you can answer with include only these: active, inactive

Q: For CCC(=O)Nc1ccc(Nc2nc(Cl)nc(Nc3ccc(NC(=O)CC)cc3)n2)cc1 , what call appears in the results of this test?
Result: inactive

Q: For Cc1ccccc1NC(=S)NNC(=O)c1cccc(Br)c1 , what call appears in the results of this test?
Result: inactive

Q: For Cc1ccccc1C(OCC(O)CN1CCCCC1CCO)c1ccccc1 (configuration not stated) , what call appears in the results of this test?
Result: active

Q: For COc1ccc(-c2nc3cnccn3c2NC(C)(C)CC(C)(C)C)cc1O , what call appears in the results of this test?
Result: inactive

Q: For COc1ccc(-c2onc(C)c2-c2ccc3c(c2)OCCO3)c(O)c1 , what call appears in the results of this test?
Result: inactive

Q: For O=C(Cn1ncc(N2CCCC2)c(Br)c1=O)c1ccc(Cl)cc1 , what call appears in the results of this test?
Result: inactive

Q: For Cc1ccc(CNC(=O)C2CC(=O)N(C3CCCCCCC3)C2)cc1 (configuration not stated) , what call appears in the results of this test?
Result: active

Q: For CC1CCCN(S(=O)(=O)c2ccc(C(=O)Nc3nnc(-c4ccncc4)o3)cc2)C1 (configuration not stated) , what call appears in the results of this test?
Result: inactive

Q: For Cc1nc(-c2ccccc2)sc1C(=O)/C=C/N(C)C , what call appears in the results of this test?
Result: inactive

Q: For O=C(CN1CCCCC1)Nc1ccccc1Cl , what call appears in the results of this test?
Result: inactive

Q: For Cc1ccc(C(NC(=O)N2CCCC2)C(Cl)(Cl)Cl)cc1F (configuration not stated) , what call appears in the results of this test?
Result: inactive

Q: For COc1cccc2c(N/N=C/c3ccco3)cc(C)nc12 , what call appears in the results of this test?
Result: inactive

Q: For Cc1ccc(OCC(=O)NNC(=S)NCc2ccccc2)cc1 , what call appears in the results of this test?
Result: inactive

Q: For CCOC(=O)C1CCN(C(=O)c2ccccc2N(C)S(=O)(=O)c2ccccc2)CC1 , what call appears in the results of this test?
Result: inactive

Q: For COc1ccc(Br)cc1/C=N/NC(=O)c1cccc(S(=O)(=O)N2CCOCC2)c1 , what call appears in the results of this test?
Result: inactive

Q: For O=c1c(-c2ccc3c(c2)OCCO3)c(C(F)(F)F)oc2cc(O)cc(O)c12 , what call appears in the results of this test?
Result: active

Q: For CCCCOCCCNC(=O)c1ccccc1OCC , what call appears in the results of this test?
Result: inactive

Q: For COc1ccc(Cl)cc1C(=O)NNC(=S)NC(=O)/C=C/c1ccco1 , what call appears in the results of this test?
Result: inactive

Q: For COC(=O)C1=CN(C)C=C(C(=O)OC)C1c1ccc(Cl)cc1Cl , what call appears in the results of this test?
Result: inactive

Q: For CCN(CC)C(=O)CN(c1cccc(OC)c1)S(=O)(=O)c1ccc(C)cc1 , what call appears in the results of this test?
Result: inactive

Q: For CC(C)OCC(O)CN1CCN(C(c2ccccc2)c2ccccc2)CC1 (configuration not stated) , what call appears in the results of this test?
Result: inactive

Q: For CC(=O)N1CCN(c2cccc(C)c2C)CC1 , what call appears in the results of this test?
Result: inactive

Q: For CCOC(=O)c1c(NC(=O)CCl)sc(C(=O)N(CC)CC)c1C , what call appears in the results of this test?
Result: active

Q: For COC(=O)c1ccc(NCC(=O)N2CCCCCC2)cc1 , what call appears in the results of this test?
Result: inactive

Q: For O=C(CN1CCCCCC1)NCCN1C(=O)S/C(=C\c2ccccc2Cl)C1=O , what call appears in the results of this test?
Result: active

Q: For Oc1ccccc1/C=N/n1c(-c2cccs2)n[nH]c1=S , what call appears in the results of this test?
Result: inactive

Q: For Cc1ccc(SCCC(=O)NCc2ccccn2)cc1 , what call appears in the results of this test?
Result: inactive

Q: For CCN(C(=O)CSc1nc2ccccc2n1CC)C1CCS(=O)(=O)C1 (configuration not stated) , what call appears in the results of this test?
Result: inactive

Q: For COc1ccc(C(=O)NC2CCN(C(=S)NCCc3ccccc3)CC2)cc1 , what call appears in the results of this test?
Result: inactive

Q: For Cc1ccc(N(C(=O)C(F)(F)F)C(C(=O)NC2CCCCC2)c2ccncc2)cc1C (configuration not stated) , what call appears in the results of this test?
Result: inactive

Q: For Cc1ccc(N(CC(O)CN2CCCC2)S(=O)(=O)c2ccccc2)cc1 (configuration not stated) , what call appears in the results of this test?
Result: inactive

Q: For CC(C)OCCCNC(=O)C1CC(=O)N(C2CCCCCCC2)C1 (configuration not stated) , what call appears in the results of this test?
Result: inactive
